Biological target: T1, GST-human NOGO-A56 (human, UniProt Q9NQC3 586-785)
T1 construct: also called hNOGO; recombinant human NOGO; not shown: Glutathione S-transferase (GST) tag encoded by vector pGEX-6P1, N-terminal to the NOGO-A fragment; the tag and linker se
T1 sequence: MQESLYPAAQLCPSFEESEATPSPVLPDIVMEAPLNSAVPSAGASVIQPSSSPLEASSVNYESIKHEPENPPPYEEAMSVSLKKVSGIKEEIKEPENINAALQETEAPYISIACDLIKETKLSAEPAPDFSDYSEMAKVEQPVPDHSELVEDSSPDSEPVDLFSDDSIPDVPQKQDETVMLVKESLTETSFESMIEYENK
Assay: SPR (Biacore 3000), GST-human NOGO-A56 amine-coupled to CM5 chip, antibody as analyte; mean (SD) of four experiments
Quantity name: Kd (µM)

H1L11 (antibody, human IgG1, kappa, V domains shown, human gamma-1 mutated constant region, human kappa) VH: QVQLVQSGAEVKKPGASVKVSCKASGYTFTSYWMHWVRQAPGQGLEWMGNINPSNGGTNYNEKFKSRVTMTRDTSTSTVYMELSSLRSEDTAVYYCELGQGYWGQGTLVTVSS VL: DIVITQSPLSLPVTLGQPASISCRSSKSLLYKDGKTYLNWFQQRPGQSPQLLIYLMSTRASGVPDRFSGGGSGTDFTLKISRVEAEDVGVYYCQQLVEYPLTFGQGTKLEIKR ... 0.0186
